Entries below carry reported pIC50 on Dyrk1B (Homo sapiens).
Sequence (Q9Y463 whole entry): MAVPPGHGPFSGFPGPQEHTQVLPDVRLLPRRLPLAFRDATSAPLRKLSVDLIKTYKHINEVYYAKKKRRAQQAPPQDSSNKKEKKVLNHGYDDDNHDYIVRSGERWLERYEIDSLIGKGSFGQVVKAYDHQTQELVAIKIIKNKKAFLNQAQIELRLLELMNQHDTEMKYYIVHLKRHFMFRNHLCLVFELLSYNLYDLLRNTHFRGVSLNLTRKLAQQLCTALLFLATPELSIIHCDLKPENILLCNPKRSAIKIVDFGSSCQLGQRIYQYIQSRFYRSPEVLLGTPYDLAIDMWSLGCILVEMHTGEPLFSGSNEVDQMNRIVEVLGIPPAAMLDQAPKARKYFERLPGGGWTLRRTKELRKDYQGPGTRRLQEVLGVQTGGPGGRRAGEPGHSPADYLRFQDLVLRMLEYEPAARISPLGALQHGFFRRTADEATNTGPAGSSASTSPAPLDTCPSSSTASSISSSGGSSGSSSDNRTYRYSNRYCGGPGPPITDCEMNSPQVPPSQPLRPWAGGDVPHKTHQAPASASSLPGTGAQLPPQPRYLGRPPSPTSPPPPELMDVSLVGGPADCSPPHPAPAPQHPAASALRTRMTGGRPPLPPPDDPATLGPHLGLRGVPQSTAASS
Scale: pIC50 equals -log10([C]), with [C] in mol/L.

O=C(NCc1cccs1)c1cc2cc(O)ccc2s1 [Compound 27]: 6.15

Turning now to a further molecule:
## Input Entry COc1cccc(CNC(=O)c2cc3cc(O)ccc3s2)c1 [Compound 12] has what pIC50?
## Output 6.62

----------
- test-name: Cell viability in normal cells, IEC-6
- Type: cell-based
- recorded-conditions: rat, IEC-6 rat intestine epithelial cells (normal cells), 20 μM, mean (n = 3)
# viability at 20 µM values compiled below
Give just the number in %; leave the unit off.

COc1cccc(CNC(=O)c2cc3cc(O)ccc3s2)c1 [Compound 12]: 96

## Input Entry O=C(NCc1cc(F)cc(F)c1)c1cc2cc(O)ccc2s1 [Compound 17] has what viability at 20 µM?
## Output 76.8

----------
- target-entity: Clk1 (Homo sapiens, UniProt P49759)
- Sequence (P49759 whole entry): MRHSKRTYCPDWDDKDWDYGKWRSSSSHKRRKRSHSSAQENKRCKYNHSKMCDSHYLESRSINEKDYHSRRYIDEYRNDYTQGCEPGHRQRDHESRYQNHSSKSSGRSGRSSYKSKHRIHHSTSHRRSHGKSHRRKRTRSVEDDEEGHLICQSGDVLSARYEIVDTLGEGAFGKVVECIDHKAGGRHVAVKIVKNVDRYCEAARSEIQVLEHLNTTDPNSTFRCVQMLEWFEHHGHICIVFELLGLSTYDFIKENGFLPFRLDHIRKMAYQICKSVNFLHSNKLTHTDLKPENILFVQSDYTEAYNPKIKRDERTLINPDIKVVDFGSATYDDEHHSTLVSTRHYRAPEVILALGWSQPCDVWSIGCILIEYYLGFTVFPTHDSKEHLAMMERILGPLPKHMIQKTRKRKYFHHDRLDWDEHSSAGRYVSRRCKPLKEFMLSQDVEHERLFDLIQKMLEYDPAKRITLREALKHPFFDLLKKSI
- test-name: Z'-LYTE kinase inhibition assay, Clk1
- Format: biochemical
- recorded-conditions: ATP conc. equivalent to Km
outcome-measure: pIC50
Scale: pIC50 equals -log10([C]), with [C] in mol/L.

O=C(NCc1ccccc1F)c1cc2cc(O)ccc2s1: 6.11
COc1cccc(CNC(=O)c2cc3cc(O)ccc3s2)c1: 6.82
O=C(NCCc1c[nH]c2ccccc12)c1cc2cc(O)ccc2s1: 6.46

## Input Entry `O=C(c1cc2cc(O)ccc2s1)N1Cc2ccc(Cl)cc2C1` has what pIC50?
## Output 6.22

## Input Entry `O=C(NCCc1ccccc1)c1cc2cc(O)ccc2s1` has what pIC50?
## Output 6.12

## Input Entry `O=C(NCc1cccs1)c1cc2cc(O)ccc2s1` has what pIC50?
## Output 6.15

## Input Entry `O=C(NCc1cccc(F)c1)c1cc2cc(O)ccc2s1` has what pIC50?
## Output 6.39

## Input Entry `O=C(NCc1cccc(Cl)c1)c1cc2cc(O)ccc2s1` has what pIC50?
## Output 6.59

## Input Entry `COc1ccccc1CNC(=O)c1cc2cc(O)ccc2s1` has what pIC50?
## Output 6.14

## Input Entry `O=C(NCc1cccc(F)c1F)c1cc2cc(O)ccc2s1` has what pIC50?
## Output 6.11

----------
outcome-measure: melting point

Examples with answers:
O=C(NCc1cc(Cl)cc(Cl)c1)c1cc2cc(O)ccc2s1 [Compound 14]: 189.4 to 192.1 °C
O=C(NCc1cc(C(F)(F)F)cc(C(F)(F)F)c1)c1cc2cc(O)ccc2s1 [Compound 18]: 199 to 201 °C
O=C(NCc1cccc(F)c1F)c1cc2cc(O)ccc2s1 [Compound 15]: 199.7 to 201.9 °C
Cc1ccc(CNC(=O)c2cc3cc(O)ccc3s2)cc1 [Compound 10]: 186.6 to 187.6 °C
COc1cccc(CNC(=O)c2cc3cc(O)ccc3s2)c1OC [Compound 20]: 181.1 to 183.3 °C
O=C(NCc1ccc(Cl)cc1)c1cc2cc(O)ccc2s1 [Compound 4]: 182 to 183.7 °C

## Input Entry O=C(NCCc1c[nH]c2ccccc12)c1cc2cc(O)ccc2s1 [Compound 30] has what melting point?
## Output 211.4 to 213 °C

## Input Entry O=C(NCCc1ccccc1)c1cc2cc(O)ccc2s1 [Compound 29] has what melting point?
## Output 99.2 to 101.1 °C

## Input Entry O=C(NCc1cccnc1)c1cc2cc(O)ccc2s1 [Compound 26] has what melting point?
## Output 198 to 200.8 °C

## Input Entry O=C(NCc1ccco1)c1cc2cc(O)ccc2s1 [Compound 28] has what melting point?
## Output 99.2 to 101.6 °C
